The origin of these recorded values is patent US10144709B2.

Entries and their change in vivo at 3 mg/kg
Test system: ICR CD strain male mice
Test: Gastric emptying enhancing activity (phenol red meal)
Assay type: in vivo
Conditions: Mus musculus, ip, 0.25 h, 3.0 mg/kg i.p., gastric emptying at 15 min after test meal, increase vs vehicle
Structures can show the parent of a compound that is named as a salt.

# MOLECULE, change in vivo at 3 mg/kg
measured = [
    ("Cn1c(=O)n(C(=O)NCC2CCN(CC(COc3ccccc3)NC(=O)O)CC2)c2ccccc21 (stereo not drawn) [Example 126, hydrochloride]", "93.3%"),
    ("CC(C)n1c(=O)n(C(=O)NCC2CCN(CCC(O)c3ccccc3)CC2)c2ccccc21 (stereo not drawn) [Example 136, hydrochloride]", "64.1%"),
    ("COc1cc(N)c(Cl)cc1C(=O)NCC1CCN(CCC(NC(=O)O)c2ccc(F)cc2)CC1 (stereo not drawn) [Example 54, hydrochloride]", "89.2%"),
]

###

We begin with a simple list: items and their reported change in vivo at 3 mg/kg.
Tested on: ICR CD strain male mice
Experiment: Gastric emptying enhancing activity (phenol red meal)
Assay type: in vivo
Details: Mus musculus, ip, 0.25 h, 3.0 mg/kg i.p., gastric emptying at 15 min after test meal, increase vs vehicle
Where a name gives a salt, the structure may show the parent alone.
RECORDED ENDPOINT: change in vivo at 3 mg/kg (%)

# COMPOUND, REPORTED MEASUREMENT
records = [
    ("COc1cc(N)c(Cl)cc1C(=O)NCC1CCN(CCC(NC(=O)O)c2ccc(Cl)c(Cl)c2)CC1 (stereo not drawn) [Example 61, hydrochloride]", 44.3),
    ("COc1cc(N)c(Cl)cc1C(=O)NCC1CCN(CCC(O)c2ccccc2Cl)CC1 (stereo not drawn) [Example 41, hydrochloride]", 24.3),
    ("COc1cc(N)c(Cl)cc1C(=O)NCC1CCN(CC(NC(=O)O)c2ccc(OC(F)F)cc2)CC1 (stereo not drawn) [Example 32, hydrochloride]", 40),
    ("COc1cc(N)c(Cl)cc1C(=O)NCC1CCN(CC(O)COc2ccc(C(F)(F)F)cc2)CC1 (stereo not drawn) [Example 83, hydrochloride]", 42.5),
    ("COc1cc(N)c(Cl)cc1C(=O)NCC1CCN(CC(O)c2ccc(F)c(F)c2)CC1 (stereo not drawn) [Example 17, hydrochloride]", 22.1),
    ("COc1cc(N)c(Cl)cc1C(=O)NCC1CCN(CCC(NC(=O)O)c2ccccc2Cl)CC1 (stereo not drawn) [Example 56, hydrochloride]", 135),
    ("COc1cc(N)c(Cl)cc1C(=O)NCC1CCN(CC(COc2ccc(Cl)cc2Cl)NC(=O)O)CC1 (stereo not drawn) [Example 96, hydrochloride]", 105),
    ("COc1ccc(OC)c(C(O)CN2CCC(CNC(=O)c3cc(Cl)c(N)cc3OC)CC2)c1 (stereo not drawn) [Example 15, hydrochloride]", 78.7),
    ("O=C(NCC1CCN(CCC(O)c2ccccc2)CC1)n1c(=O)n(C2CC2)c2ccccc21 (stereo not drawn) [Example 135, hydrochloride]", 90.3),
    ("COc1cc(N)c(Cl)cc1C(=O)NCC1CCN(CCC(O)c2ccc(F)cc2)CC1 (stereo not drawn) [Example 37, hydrochloride]", 70.7),
    ("COc1cc(N)c(Cl)cc1C(=O)NCC1CCN(CCC(NC(=O)O)c2ccc(Cl)cc2Cl)CC1 (stereo not drawn) [Example 60, hydrochloride]", 14.2),
    ("COc1cc(N)c(Cl)cc1C(=O)NCC1CCN(CCC(O)CCc2ccc(F)cc2)CC1 (stereo not drawn) [Example 52, hydrochloride]", 131),
    ("COc1ccc(C(O)CCN2CCC(CNC(=O)c3cc(Cl)c(N)cc3OC)CC2)cc1 (stereo not drawn) [Example 40, hydrochloride]", 51.6),
    ("COc1cc(N)c(Cl)cc1C(=O)NCC1CCN(CC(O)c2ccc(C#N)cc2)CC1 (stereo not drawn) [Example 5, hydrochloride]", 76.1),
    ("CC(C)n1c(=O)n(C(=O)NCC2CCN(CC(O)COc3ccccc3)CC2)c2ccccc21 (stereo not drawn) [Example 104, hydrochloride]", 81),
]

###

System: ICR CD strain male mice
Experiment: Gastric emptying enhancing activity (phenol red meal)
Assay type: in vivo
Conditions: Mus musculus, ip, 0.25 h, 3.0 mg/kg i.p., gastric emptying at 15 min after test meal, increase vs vehicle
Description: ICR CD strain male mice (body weight, 25˜30 g; 8 mice per one group) were fasted for 24 h but allowed free access to water until 3 hours before the test. Compounds to be tested for promoting GI motility were injected intraperitoneally or given orally at 30 min or 60 min prior to phenol red meal administration. […] The mixture was homogenized and its absorbance (Abs) was read at 560 nm. […]
Counter-ions that a name gives are not always drawn.
RECORDED ENDPOINT: change in vivo at 3 mg/kg (%)

# COMPOUND, UNIT ANNOTATION, REPORTED MEASUREMENT
records = [
    ("COc1ccc(OCC(CN2CCC(CNC(=O)n3c(=O)n(C(C)C)c4ccccc43)CC2)NC(=O)O)cc1 (stereo not drawn) [Example 121, hydrochloride]", "%", 46.8),
    ("COc1cc(N)c(Cl)cc1C(=O)NCC1CCN(CC(COc2ccc(Cl)c(Cl)c2)NC(=O)O)CC1 (stereo not drawn) [Example 99, hydrochloride]", "%", 47.5),
    ("COc1cc(N)c(Cl)cc1C(=O)NCC1CCN(CC(O)c2ccccc2Cl)CC1 (stereo not drawn) [Example 13, hydrochloride]", "%", 14),
    ("COc1cc(N)c(Cl)cc1C(=O)NCC1CCN(CC(COc2ccccc2)OC(=O)N2CCCCC2)CC1 (stereo not drawn) [Example 88, hydrochloride]", "%", 44.1),
    ("COc1cc(N)c(Cl)cc1C(=O)NCC1CCN(CCC(Cc2ccc(F)cc2)NC(=O)O)CC1 (stereo not drawn) [Example 65, hydrochloride]", "%", 93.1),
    ("COc1cc(N)c(Cl)cc1C(=O)NCC1CCN(CCC(O)c2ccc(Cl)c(Cl)c2)CC1 (stereo not drawn) [Example 47, hydrochloride]", "%", 25.9),
]
